# System: Nucleic Acid
# test_name: Binding affinity to Tel22 G-quadruplex DNA by two site-mode surface plasmon resonance analysis
# Assay type: nucleic-acid assay
measurement_label: Kb

Value of measured Kb for the entry `CC1(C)C(/C=C/C=C/C=C2/N(CCC[N+](C)(C)C)c3ccccc3C2(C)C)=[N+](CCC[N+](C)(C)C)c2ccccc21` : 0.17 ×10⁶ /M

Value of measured Kb for the entry `CC1(C)C(/C=C/C(Br)=C/C=C2/N(CCC[N+](C)(C)C)c3ccc(Br)cc3C2(C)C)=[N+](CCC[N+](C)(C)C)c2ccc(Br)cc21` : 0.06 ×10⁶ /M

Value of measured Kb for the entry `CC1(C)C(/C=C/C=C/C=C2/N(CCC[N+](C)(C)C)c3ccc(Br)cc3C2(C)C)=[N+](CCC[N+](C)(C)C)c2ccc(Br)cc21` : 0.59 ×10⁶ /M

Value of measured Kb for the entry `CC1(C)C(/C=C/C(Cl)=C/C=C2/N(CCC[N+](C)(C)C)c3ccccc3C2(C)C)=[N+](CCC[N+](C)(C)C)c2ccccc21` : 0.08 ×10⁶ /M

Value of measured Kb for the entry `CC1(C)C(/C=C/C(Cl)=C/C=C2/N(CCC[N+](C)(C)C)c3ccc(Br)cc3C2(C)C)=[N+](CCC[N+](C)(C)C)c2ccc(Br)cc21` : 0.05 ×10⁶ /M

Value of measured Kb for the entry `CC1(C)C(/C=C/C(Br)=C/C=C2/N(CCC[N+](C)(C)C)c3ccc(Cl)cc3C2(C)C)=[N+](CCC[N+](C)(C)C)c2ccc(Cl)cc21` : 0.13 ×10⁶ /M

Value of measured Kb for the entry `CC1(C)C(/C=C/C(Br)=C/C=C2/N(CCC[N+](C)(C)C)c3ccccc3C2(C)C)=[N+](CCC[N+](C)(C)C)c2ccccc21` : 0.74 ×10⁶ /M

Value of measured Kb for the entry `CC1(C)C(/C=C/C(Cl)=C/C=C2/N(CCC[N+](C)(C)C)c3ccc(Cl)cc3C2(C)C)=[N+](CCC[N+](C)(C)C)c2ccc(Cl)cc21` : 0.08 ×10⁶ /M
